# System: 695427-040-R-J1-PDC complex spheroids, viability percent T/C
# measurementNotes: Anticancer human tumor 695427-040-R-J1-PDC patient-derived colon adenocarcinoma cell line growth inhibition [GQUAD]
# experimentalParameters: second compound 0.1 µM; first compound 0.316 µM; hits give low values
Some compounds, each annotated with its measured viability, T/C.
Report as a plain number; the unit % is understood.

Example compounds with recorded viability, T/C:
CC1COCCN1c1cc(C2(O)CC3CCC(C2)O3)c2cnn(-c3ccn[nH]3)c2n1 (stereo not given) + CN(C)c1ccc(Nc2c3ccc(NC(=O)CCN4CCCC4)cc3nc3cc(NC(=O)CCN4CCCC4)ccc23)cc1 ... 69.4
CCc1c2c(nc3ccc(O)cc13)-c1cc3c(c(=O)n1C2)COC(=O)[C@]3(O)CC + CN(C)c1ccc(Nc2c3ccc(NC(=O)CCN4CCCC4)cc3nc3cc(NC(=O)CCN4CCCC4)ccc23)cc1 ... 53.2
O=C(NO)c1cnc(N2CCN(S(=O)(=O)c3ccc4ccccc4c3)CC2)nc1 + Cc1cnc(CNC(=O)c2c(=O)c3ccc(N4CCCN(C)CC4)nc3n3c2sc2ccccc23)cn1 ... 68.3
O=C(c1cc(Cc2n[nH]c(=O)c3ccccc23)ccc1F)N1CCN(C(=O)C2CC2)CC1 + CN(C)c1ccc(Nc2c3ccc(NC(=O)CCN4CCCC4)cc3nc3cc(NC(=O)CCN4CCCC4)ccc23)cc1 ... 104

For the next question, use this compound.
What does the data say about its viability, T/C? Entry: Cn1ncnc1[C@H]1c2n[nH]c(=O)c3cc(F)cc(c23)N[C@@H]1c1ccc(F)cc1 + Cc1cnc(CNC(=O)c2c(=O)c3ccc(N4CCCN(C)CC4)nc3n3c2sc2ccccc23)cn1
60.6

====

# Tested on: 695427-040-R-J1-PDC complex spheroids, viability percent T/C
# measurementNotes: Anticancer human tumor 695427-040-R-J1-PDC cell line growth inhibition [GQUAD];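 further: spheroids exposed to compounds for seven days before readout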
# experimentalParameters: second compound 0.316 µM; first compound 1 µM; hits give low values
The entries below are paired with their reported viability, T/C.
Lab book: enter the figure in %, no units written.

Worked set:
COc1cc(C2c3cc4c(cc3C(OC3OC5COC(C)OC5C(O)C3O)C3COC(=O)C23)OCO4)cc(OC)c1O (stereo unspecified) + CN(C)c1ccc(Nc2c3ccc(NC(=O)CCN4CCCC4)cc3nc3cc(NC(=O)CCN4CCCC4)ccc23)cc1 ... 89.2
CC1COCCN1c1cc(-c2ccnn2C)c2ccnc(-c3ccn[nH]3)c2n1 (stereo unspecified) + Cc1[nH]c2ccc(F)cc2c1-c1nc2c3cccnc3c3ncccc3c2[nH]1 ... 28.5

Which viability, T/C value is on record for COc1ncnc(C2CC2)c1-c1ncc2cnn(Cc3ccc(-c4nc(C(F)(F)F)cn4C(C)C)cc3)c2n1 + CN(C)c1ccc(Nc2c3ccc(NC(=O)CCN4CCCC4)cc3nc3cc(NC(=O)CCN4CCCC4)ccc23)cc1 ?
94.3

Find the recorded viability, T/C belonging to C=CCn1c(=O)c2cnc(Nc3ccc(N4CCN(C)CC4)cc3)nc2n1-c1cccc(C(C)(C)O)n1 + Cc1cnc(CNC(=O)c2c(=O)c3ccc(N4CCCN(C)CC4)nc3n3c2sc2ccccc23)cn1 and report it.
58.5

Return reported viability, T/C; argument: O=c1[nH]cc(F)c(=O)[nH]1 + Cc1[nH]c2ccc(F)cc2c1-c1nc2c3cccnc3c3ncccc3c2[nH]1
62.4

Entry under review: CC(C)n1c(=O)n(C)c2cnc3cc(F)c(-c4ccc(OCCCN5CCCCC5)nc4)cc3c21 + CN(C)c1ccc(Nc2c3ccc(NC(=O)CCN4CCCC4)cc3nc3cc(NC(=O)CCN4CCCC4)ccc23)cc1 . Reported viability, T/C?
106

====

# Tested on: 695427-040-R-J1-PDC complex spheroids, viability percent T/C
# measurementNotes: Anticancer human tumor 695427-040-R-J1-PDC cell line growth inhibition [GQUAD];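 further: spheroids exposed to compounds for seven days before readout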
# experimentalParameters: second compound 0.316 µM; first compound 1 µM; hits give low values
endpoint: viability, T/C (%)
Field: numeric (%). Do not append units.

CC1COCCN1c1cc(-c2ccnn2C)c2ccnc(-c3ccn[nH]3)c2n1 (stereo not drawn) + CN(C)c1ccc(Nc2c3ccc(NC(=O)CCN4CCCC4)cc3nc3cc(NC(=O)CCN4CCCC4)ccc23)cc1 ... 49.3
O=C(c1cc(Cc2n[nH]c(=O)c3ccccc23)ccc1F)N1CCN(C(=O)C2CC2)CC1 + CN(C)c1ccc(Nc2c3ccc(NC(=O)CCN4CCCC4)cc3nc3cc(NC(=O)CCN4CCCC4)ccc23)cc1 ... 98.9

Turning now to a further record.
Look up viability, T/C: CCCS(=O)(=O)Nc1ccc(F)c(C(=O)c2c[nH]c3ncc(-c4ccc(Cl)cc4)cc23)c1F + Cc1[nH]c2ccc(F)cc2c1-c1nc2c3cccnc3c3ncccc3c2[nH]1
73.4

====

# Test system: 695427-040-R-J1-PDC complex spheroids, viability percent T/C
# measurementNotes: Anticancer human tumor 695427-040-R-J1-PDC cell line growth inhibition [GQUAD];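 further: spheroids exposed to compounds for seven days before readout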
# experimentalParameters: second compound 0.1 µM; first compound 0.316 µM; hits give low values
// reported viability, T/C per item
Give your result in % as a bare value.

CC[C@@]1(O)C(=O)OCc2c1cc1n(c2=O)Cc2cc3c(CN(C)C)c(O)ccc3nc2-1 + CN(C)c1ccc(Nc2c3ccc(NC(=O)CCN4CCCC4)cc3nc3cc(NC(=O)CCN4CCCC4)ccc23)cc1 ... 85

Find the recorded viability, T/C belonging to O=c1[nH]cc(F)c(=O)[nH]1 + CN(C)c1ccc(Nc2c3ccc(NC(=O)CCN4CCCC4)cc3nc3cc(NC(=O)CCN4CCCC4)ccc23)cc1 and report it.
94.9

So what does the record say about viability, T/C for CCc1c2c(nc3ccc(O)cc13)-c1cc3c(c(=O)n1C2)COC(=O)[C@]3(O)CC + Cc1[nH]c2ccc(F)cc2c1-c1nc2c3cccnc3c3ncccc3c2[nH]1 ?
43

Report viability, T/C for C=CC(=O)N1CCN(c2nc(=O)n(-c3c(C)ccnc3C(C)C)c3nc(-c4c(O)cccc4F)c(F)cc23)C(C)C1 (stereo unspecified) + Cc1[nH]c2ccc(F)cc2c1-c1nc2c3cccnc3c3ncccc3c2[nH]1 please.
99.9

# get_value(readout='viability, T/C', item= CC(C)(O)C1CCC(Nc2ccc3ncc(-c4cccc(C(F)(F)F)c4)n3n2)CC1 (stereo unspecified) + CN(C)c1ccc(Nc2c3ccc(NC(=O)CCN4CCCC4)cc3nc3cc(NC(=O)CCN4CCCC4)ccc23)cc1 )
108

What value of viability, T/C has been recorded for this entry: COc1cccc2c1C(=O)c1c(O)c3c(c(O)c1C2=O)CC(O)(C(=O)CO)CC3OC1CC(N)C(O)C(C)O1 (stereo unspecified) + Cc1[nH]c2ccc(F)cc2c1-c1nc2c3cccnc3c3ncccc3c2[nH]1
91.3

Requested field: viability, T/C. Item: CC1COCCN1c1cc(-c2ccnn2C)c2ccnc(-c3ccn[nH]3)c2n1 (stereo unspecified) + Cc1cnc(CNC(=O)c2c(=O)c3ccc(N4CCCN(C)CC4)nc3n3c2sc2ccccc23)cn1
36.2

====

# Tested on: 695427-040-R-J1-PDC complex spheroids, viability percent T/C
# measurementNotes: Anticancer human tumor 695427-040-R-J1-PDC cell line growth inhibition [GQUAD];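 further: spheroids exposed to compounds for seven days before readout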
# experimentalParameters: second compound 0.1 µM; first compound 0.00999 µM; hits give low values
endpoint: viability, T/C (%)
Respond with the bare value in %.

Sample answers from the record:
CCc1c2c(nc3ccc(O)cc13)-c1cc3c(c(=O)n1C2)COC(=O)[C@]3(O)CC + Cc1[nH]c2ccc(F)cc2c1-c1nc2c3cccnc3c3ncccc3c2[nH]1 ... 80.2
CCc1c2c(nc3ccc(O)cc13)-c1cc3c(c(=O)n1C2)COC(=O)[C@]3(O)CC + CN(C)c1ccc(Nc2c3ccc(NC(=O)CCN4CCCC4)cc3nc3cc(NC(=O)CCN4CCCC4)ccc23)cc1 ... 85.4

Here's the next entry for you.
For the compound shown here, Cc1[nH]c2ccccc2c1CCNCc1ccc(/C=C/C(=O)NO)cc1 + Cc1cnc(CNC(=O)c2c(=O)c3ccc(N4CCCN(C)CC4)nc3n3c2sc2ccccc23)cn1 , give the reported viability, T/C.
84.3

====

Measured viability, T/C of individual entries
# Test system: 695427-040-R-J1-PDC complex spheroids, viability percent T/C
# measurementNotes: Anticancer human tumor 695427-040-R-J1-PDC cell line growth inhibition [GQUAD];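 further: spheroids exposed to compounds for seven days before readout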
# experimentalParameters: second compound 0.316 µM; first compound 1 µM; hits give low values
Use % as the unit, but write only the number.

Worked cases, answers included:
O=C(c1cc(Cc2n[nH]c(=O)c3ccccc23)ccc1F)N1CCN(C(=O)C2CC2)CC1 + Cc1cnc(CNC(=O)c2c(=O)c3ccc(N4CCCN(C)CC4)nc3n3c2sc2ccccc23)cn1 ... 74.7
COc1ncnc(C2CC2)c1-c1ncc2cnn(Cc3ccc(-c4nc(C(F)(F)F)cn4C(C)C)cc3)c2n1 + Cc1cnc(CNC(=O)c2c(=O)c3ccc(N4CCCN(C)CC4)nc3n3c2sc2ccccc23)cn1 ... 65.2
COc1cccc2c1C(=O)c1c(O)c3c(c(O)c1C2=O)CC(O)(C(=O)CO)CC3OC1CC(N)C(O)C(C)O1 (centres undefined) + Cc1[nH]c2ccc(F)cc2c1-c1nc2c3cccnc3c3ncccc3c2[nH]1 ... 73.8

Pending compound:
Reported viability, T/C for CC(=O)O[C@H]1C(=O)[C@@]2(C)[C@H]([C@H](OC(=O)c3ccccc3)[C@]3(O)C[C@H](OC(=O)[C@H](O)[C@@H](NC(=O)c4ccccc4)c4ccccc4)C(C)=C1C3(C)C)[C@]1(OC(C)=O)CO[C@@H]1C[C@@H]2O + CN(C)c1ccc(Nc2c3ccc(NC(=O)CCN4CCCC4)cc3nc3cc(NC(=O)CCN4CCCC4)ccc23)cc1 : what is it?
84.5
